Sourced from patent US20240270821A1

testedSystem: hGIPR (Homo sapiens, UniProt P48546)
Sequence (P48546 22-466): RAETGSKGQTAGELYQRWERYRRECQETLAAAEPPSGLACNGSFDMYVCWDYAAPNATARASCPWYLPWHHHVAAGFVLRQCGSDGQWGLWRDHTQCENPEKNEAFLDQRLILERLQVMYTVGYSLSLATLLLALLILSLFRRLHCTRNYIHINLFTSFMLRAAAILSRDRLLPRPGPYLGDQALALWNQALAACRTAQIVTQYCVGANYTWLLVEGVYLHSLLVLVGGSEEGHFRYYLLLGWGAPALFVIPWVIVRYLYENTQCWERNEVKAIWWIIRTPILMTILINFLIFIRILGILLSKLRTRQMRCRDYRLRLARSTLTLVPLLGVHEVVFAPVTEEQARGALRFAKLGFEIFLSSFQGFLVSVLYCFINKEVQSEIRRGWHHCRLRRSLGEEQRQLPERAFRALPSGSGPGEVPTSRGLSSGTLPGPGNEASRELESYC
test: Functional cAMP activation in the presence of 0.1% casein (no HSA);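 also: intracellular cAMP rise after 30 min at 37 °C read by HTRF against a standard curve, scaled between buffer alone (0%) and top control ligand concentration (100%), four-parameter fit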
Format: cell-based
studyConditions: read-out: Relative cAMP EC50, hGIPR
Starred links: 1 amine or outer side, 2 acyl side, 3 side chain; linkers in the order of their positions; H or OH if unused. Non-standard residues stand in square brackets, D forms with d. Groups on a side chain read outwards from the residue. *: point of attachment. C18 diacid = O=C(O)CCCCCCCCCCCCCCCCC(=O)*; αMePhe(2-F) = C[C@](N)(Cc1ccccc1F)C(=O)O; γGlu = O=C(O)[C@H](CCC(=O)[*:2])N[*:1]; αMe4Pal = C[C@](N)(Cc1ccncc1)C(=O)O; αMeY = C[C@](N)(Cc1ccc(O)cc1)C(=O)O; 4Pal = N[C@@H](Cc1ccncc1)C(=O)O; αMeL = CC(C)C[C@](C)(N)C(=O)O; αMeS = C[C@](N)(CO)C(=O)O; Orn = NCCC[C@H](N)C(=O)O; AEEA = NCCOCCOCC(=O)O; Aib = CC(C)(N)C(=O)O
readoutName: pEC50
In simple prose, pEC50 is minus the logarithm base ten of a concentration in moles per litre.

Input line: Please give the measured pEC50 for this substance: H-Y[Aib]QGT[αMePhe(2-F)]TSD[4Pal]SI[αMeL]LD[Orn]K([AEEA-γGlu-C18 diacid])AQ[αMe4Pal]EFI[dE][αMeY]LAEGGPSSGAPPPSGS-NH2 [Example 642]
Output line: 11.10

Input line: Please give the measured pEC50 for this substance: H-Y[Aib]QGT[αMePhe(2-F)]TSD[4Pal][αMeS]I[αMeL]LD[Orn]K([γGlu-γGlu-C18 diacid])AQ[Aib][Orn]FI[dE][αMeY]LTEGGPSSGEPPPSGTE-NH2 [Example 542]
Output line: 10.47

Input line: Please give the measured pEC50 for this substance: H-Y[Aib]QGT[αMePhe(2-F)]TSD[4Pal][αMeS]I[αMeL]LD[Orn]K([γGlu-γGlu-C18 diacid])AQ[αMe4Pal]EFI[dE][αMeY]LVEGGPSSGEPPPSGGGE-NH2 [Example 739]
Output line: 10.82

Input line: Please give the measured pEC50 for this substance: H-Y[Aib]QGT[αMePhe(2-F)]TSD[4Pal]SILLDKK([γGlu-γGlu-C18 diacid])AQ[Aib]AFIEYLEEGGPSSGAPPPSGSEE-NH2 [Example 610]
Output line: 9.88

Input line: Please give the measured pEC50 for this substance: H-Y[Aib]QGT[αMePhe(2-F)]TSD[4Pal][αMeS]I[αMeL]LD[Orn]K([AEEA-γGlu-C18 diacid])AQ[Aib]NFIEYLIEGGPSSGEPPPEEG-NH2 [Example 482]
Output line: 10.86
